# Test system: Neutrophil
# test_description: Inhibition of PMA-induced oxidative burst in human neutrophils by chemiluminescence assay
# Type: functional, cell-based
property_measured: pIC50
pIC50 here is simply -log10 of the concentration when that concentration is written in mol/L.

{"compound": "O=c1c(O)c(-c2ccc(O)c(O)c2)oc2cc(O)cc(O)c12 [QUERCETIN]", "quantitative_readout": 5.55}
{"compound": "O=c1cc(-c2ccc(O)c(O)c2)oc2c(Cl)c(O)cc(O)c12", "quantitative_readout": 5.59}
{"compound": "O=c1cc(-c2ccc(O)c(O)c2)oc2cc(O)cc(O)c12 [LUTEOLIN]", "quantitative_readout": 5.28}
{"compound": "O=c1cc(-c2ccc(O)c(O)c2)oc2c(Cl)c(O)c(Cl)c(O)c12", "quantitative_readout": 5.47}
{"compound": "O=c1c(Cl)c(-c2ccc(O)c(O)c2)oc2cc(O)cc(O)c12", "quantitative_readout": 5.70}

Form: compound = O=c1c(Cl)c(-c2ccc(O)c(O)c2)oc2c(Cl)c(O)cc(O)c12 ; pIC50 = 5.34
